Biological target: PeaTAR1B (PeaTAR1B-HA) (Periplaneta americana)
Construct: stably expressed in HEK 293 flpTM cells
Sequence (A0A239QQ38 1-481): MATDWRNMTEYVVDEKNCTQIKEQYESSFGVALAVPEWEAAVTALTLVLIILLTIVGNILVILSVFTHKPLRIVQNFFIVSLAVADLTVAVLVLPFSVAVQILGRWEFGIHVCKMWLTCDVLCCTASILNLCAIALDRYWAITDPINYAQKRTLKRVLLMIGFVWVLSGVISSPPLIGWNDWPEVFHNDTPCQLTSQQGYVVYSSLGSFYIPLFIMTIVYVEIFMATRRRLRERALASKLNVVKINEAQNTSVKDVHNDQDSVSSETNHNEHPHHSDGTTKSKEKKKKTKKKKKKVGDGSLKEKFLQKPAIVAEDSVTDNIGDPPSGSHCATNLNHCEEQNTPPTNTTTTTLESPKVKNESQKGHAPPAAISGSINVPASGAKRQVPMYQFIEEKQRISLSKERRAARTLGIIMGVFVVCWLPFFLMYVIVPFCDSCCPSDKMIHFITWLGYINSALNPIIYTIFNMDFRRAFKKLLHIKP
Test: block of tyramine-induced attenuation of NKH 477-stimulated cAMP, CNG channel / Fluo-4 fluorescence in HEK […] flpTM cells

Record smiles	IC50, nM
COC(=O)[C@@H]1[C@H]2C[C@H]3c4[nH]c5ccccc5c4CCN3C[C@@H]2CC[C@@H]1O	740
